# measurement description: Inhibition of Dengue virus serotype-2 NS2B-NS3 protease using 2-Abz-Nle-Lys-Arg-Arg-Ser-(3-NO2)-Tyr-NH2 as substrate preincubated with protein for 15 mins followed by substrate addition measured for 15 mins by FRET assay
# Design: species or system dengue virus type 2
reported property: pIC50
Value format note: pIC50 is -log10 of concentration (mol/L); just state the number.

## Task Fill in reported pIC50 for this entry: N=C(N)NCCC[C@H](NC(=O)c1ccccc1F)C(=O)N[C@@H](CCCCN)C(=O)N[C@@H](C(N)=O)c1ccc(OCc2ccccc2)cc1
## Result 6.47

## Task Supply recorded pIC50 for N=C(N)NCCC[C@H](NC(=O)c1ccccc1C(F)(F)F)C(=O)N[C@@H](CCCCN)C(=O)N[C@@H](C(N)=O)c1ccc(OCc2ccccc2)cc1 here.
## Result 6.52

## Task Could you please provide reported pIC50 for N=C(N)NCCC[C@H](NC(=O)c1cc2sccc2s1)C(=O)N[C@@H](CCCCN)C(=O)N[C@@H](C(N)=O)c1ccc(OCc2ccccc2)cc1 ? Thanks!
## Result 6.40

## Task Quote pIC50 reported for N=C(N)NCCC[C@H](NC(=O)c1ccc(C=O)cc1)C(=O)N[C@@H](CCCCN)C(=O)N[C@@H](C(N)=O)c1ccc(OCc2ccccc2)cc1 please.
## Result 6.63

## Task Let me know recorded pIC50 for N=C(N)NCCC[C@H](NC(=O)c1ccccc1)C(=O)N[C@@H](CCCCN)C(=O)N[C@@H](C(N)=O)c1ccc(O)cc1 , thanks.
## Result 5.69

Reference source for all entries: ChEMBL document CHEMBL3739314
